# Tested on: HELA-654 cells
# Test description: Hela-654 eGFP assay (incucyte imaging, GFP positive cells, 72 h)
# Format: cell-based
# Run parameters: Iph scan, 30 μM of compound, 72 hours
# Protocol: HELA-654 cells were imaged at 72 hours with an incucyte and the number of GFP positive cells versus total cell counts were calculated with the incucyte image analysis software. Statistical analysis was conducted using a one-way analysis of variance (ANOVA) test with Dunnett's multiple comparison test. […] HELA-654 cells were imaged at 72 hours with an incucyte and the number of GFP positive cells versus total cell counts were calculated with the incucyte image analysis software.
Where no end group is shown, it is not given here. [ ]: non-standard residue; d: D form. Api = NC1(C(=O)O)CCNCC1; Iph = iodophenylalanine
Measurement name: Percentage of GFP Positive Cells at 72 hours (30 μM) (%)

Substance	Unit of measure	Result
Lys-Gln-Lys-Thr-Ser-Iph-Gly-Arg-Gly-Iph-Lys-Trp-Lys-Lys (KQKTS[Iph]GRG[Iph]KWKK; also: PMO conjugate) [PMO-CXP1T]	%	36.5
Lys-Gln-Lys-Thr-Ser-Iph-Gly-Arg-Gly-Pip-Iph-Trp-Lys-Lys (KQKTS[Iph]GRG[Api][Iph]WKK; also: PMO conjugate) [PMO-CXP1U]	%	66.4
Lys-Gln-Lys-Thr-Ser-Iph-Gly-Arg-Gly-Pip-Lys-Trp-Iph-Lys [PMO-CXP1V]	%	86.4
